All values here come from ChEMBL document CHEMBL1777752.

test: Selectivity ratio of human recombinant P2X7 receptor to rat recombinant P2X7 receptor
Can you tell me Ratio for the items I'm about to list?
// return just the number, without any unit appended

Name the recorded Ratio for `Clc1cccc(-n2nnnc2NCc2cccc3c2CCO3)c1Cl` .
10

Name the recorded Ratio for `FC(F)(F)Oc1ccc(CNc2nnnn2-c2cccc(Cl)c2Cl)cc1` .
8

Name the recorded Ratio for `FC(F)(F)c1ccccc1CNc1nnnn1-c1cccc(Cl)c1Cl` .
2

Name the recorded Ratio for `Fc1ccc(F)c(CNc2nnnn2-c2cccc(Cl)c2Cl)c1` .
2

Name the recorded Ratio for `Clc1ccccc1CNc1nnnn1-c1cccc(Cl)c1Cl` .
3

Name the recorded Ratio for `Fc1ccc(F)c(CNc2nnnn2-c2cccc(Cl)c2Cl)c1Cl` .
9

Name the recorded Ratio for `CC(C)Oc1ccccc1CNc1nnnn1-c1cccc(Cl)c1Cl` .
2

Name the recorded Ratio for `Fc1cccc(CNc2nnnn2-c2cccc(Cl)c2Cl)c1` .
2

Name the recorded Ratio for `CCOc1ccccc1CNc1nnnn1-c1cccc(Cl)c1Cl` .
2

Name the recorded Ratio for `FC(F)(F)Oc1ccccc1CNc1nnnn1-c1cccc(Cl)c1Cl` .
2

Name the recorded Ratio for `FC(F)Oc1ccccc1CNc1nnnn1-c1cccc(Cl)c1Cl` .
2

Name the recorded Ratio for `Fc1ccccc1CNc1nnnn1-c1cccc(Cl)c1Cl` .
4

Name the recorded Ratio for `Clc1cccc(-n2nnnc2NCc2ccccc2)c1Cl` .
4

Name the recorded Ratio for `FC(F)(F)Oc1cccc(CNc2nnnn2-c2cccc(Cl)c2Cl)c1` .
2

Name the recorded Ratio for `Clc1cccc(-n2nnnc2N[C@H]2CCc3ccccc32)c1Cl` .
10

Name the recorded Ratio for `C[C@@H](Nc1nnnn1-c1cccc(Cl)c1Cl)c1ccccc1` .
40

Name the recorded Ratio for `C[C@H](Nc1nnnn1-c1cccc(Cl)c1Cl)c1ccccc1` .
20

Name the recorded Ratio for `COc1cccc(CNc2nnnn2-c2cccc(Cl)c2Cl)c1OC` .
2

Name the recorded Ratio for `Fc1ccc(Cl)cc1CNc1nnnn1-c1cccc(Cl)c1Cl` .
7

Name the recorded Ratio for `Cc1cccc(CNc2nnnn2-c2cccc(Cl)c2Cl)c1C` .
9

Name the recorded Ratio for `Clc1cccc(-n2nnnc2NCc2ccccc2N2CCOCC2)c1Cl` .
2

Name the recorded Ratio for `Cc1ccccc1Nc1nnnn1-c1cccc(Cl)c1Cl` .
2

Name the recorded Ratio for `Clc1cccc(CNc2nnnn2-c2cccc(Cl)c2Cl)c1` .
4

Name the recorded Ratio for `Cc1ccccc1CNc1nnnn1-c1cccc(Cl)c1Cl` .
3

Name the recorded Ratio for `Clc1ccc(CNc2nnnn2-c2cccc(Cl)c2Cl)cc1` .
4
